Recorded melting point values for a group of compounds are listed next.

Reference set (9 entries):
[[record]]
chemicalstring = "C/C(O)=C(\\C#N)C(=O)Nc1ccc(S(F)(F)(F)(F)F)cc1"
result = "167 to 170 °C"

[[record]]
chemicalstring = "CN1C(=O)C2(CCOCC2)c2cc(S(F)(F)(F)(F)F)ccc21"
result = "158 °C"

[[record]]
chemicalstring = "Cc1oncc1C(=O)Nc1ccc(S(F)(F)(F)(F)F)cc1"
result = "167 to 168 °C"

[[record]]
chemicalstring = "CS(=O)(=O)N1CCN(C(=O)c2cccc(S(F)(F)(F)(F)F)c2)CC1"
result = "159 to 160 °C"

[[record]]
chemicalstring = "Cc1cc(C)c(/C=C2\\C(=O)Nc3ccc(S(F)(F)(F)(F)F)cc32)[nH]1"
result = "203 to 205 °C"

[[record]]
chemicalstring = "O=C(c1cccc(S(F)(F)(F)(F)F)c1)N1CCOCC1"
result = "63 to 64 °C"

[[record]]
chemicalstring = "O=C(c1cccc(S(F)(F)(F)(F)F)c1)N1CCCCC1"
result = "88 to 90 °C"

[[record]]
chemicalstring = "O=C1Nc2ccc(S(F)(F)(F)(F)F)cc2C12CCOCC2"
result = "247 to 249 °C"

[[record]]
chemicalstring = "CC(C)=C1C(=O)Nc2ccc(S(F)(F)(F)(F)F)cc21"
result = "191 to 194 °C"


// switching to the query compound
Query block: Which melting point reading was recorded for the compound Cc1cc(C)c(/C=C2\C(=O)Nc3cc(S(F)(F)(F)(F)F)ccc32)[nH]1 ?
Result block: 199 to 201 °C
